# assay_target: HCMV polymerase (Human cytomegalovirus, UniProt P08546)
# Sequence (P08546 whole entry): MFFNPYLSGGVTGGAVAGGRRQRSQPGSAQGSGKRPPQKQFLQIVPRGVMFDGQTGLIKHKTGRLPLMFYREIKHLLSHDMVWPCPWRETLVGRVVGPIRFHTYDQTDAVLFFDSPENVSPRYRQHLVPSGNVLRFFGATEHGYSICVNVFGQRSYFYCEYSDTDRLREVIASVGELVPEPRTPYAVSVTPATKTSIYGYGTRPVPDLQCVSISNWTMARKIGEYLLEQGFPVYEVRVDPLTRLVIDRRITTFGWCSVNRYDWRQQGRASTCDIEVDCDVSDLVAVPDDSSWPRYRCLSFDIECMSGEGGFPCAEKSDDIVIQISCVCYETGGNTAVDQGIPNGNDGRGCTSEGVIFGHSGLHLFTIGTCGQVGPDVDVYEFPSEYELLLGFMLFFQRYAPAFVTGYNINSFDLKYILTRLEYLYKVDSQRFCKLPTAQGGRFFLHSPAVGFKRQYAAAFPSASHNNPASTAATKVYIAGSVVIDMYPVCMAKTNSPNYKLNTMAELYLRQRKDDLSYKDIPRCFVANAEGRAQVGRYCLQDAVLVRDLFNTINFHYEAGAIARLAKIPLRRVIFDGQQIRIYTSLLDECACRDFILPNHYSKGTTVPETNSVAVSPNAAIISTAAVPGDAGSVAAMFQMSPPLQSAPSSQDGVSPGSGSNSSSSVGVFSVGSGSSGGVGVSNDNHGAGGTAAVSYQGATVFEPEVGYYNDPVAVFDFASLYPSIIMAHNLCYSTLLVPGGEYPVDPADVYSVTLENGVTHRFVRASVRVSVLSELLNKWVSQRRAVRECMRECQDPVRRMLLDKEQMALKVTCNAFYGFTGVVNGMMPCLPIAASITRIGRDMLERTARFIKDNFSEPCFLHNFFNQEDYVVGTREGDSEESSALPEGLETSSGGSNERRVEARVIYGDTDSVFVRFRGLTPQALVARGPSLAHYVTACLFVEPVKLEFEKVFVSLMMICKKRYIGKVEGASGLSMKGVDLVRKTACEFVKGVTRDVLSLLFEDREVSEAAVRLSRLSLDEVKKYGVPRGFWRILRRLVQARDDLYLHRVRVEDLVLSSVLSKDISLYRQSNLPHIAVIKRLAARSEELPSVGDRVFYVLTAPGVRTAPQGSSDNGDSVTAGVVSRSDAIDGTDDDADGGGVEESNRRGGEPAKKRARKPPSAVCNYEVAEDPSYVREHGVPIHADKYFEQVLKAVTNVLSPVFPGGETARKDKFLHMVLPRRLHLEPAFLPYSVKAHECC
# assay_summary: HCMV polymerase scintillation proximity assay
pIC50: −log10 of the molar value.
Reported pIC50 values follow for various molecules
value_type: pIC50

| molecule | assay_target | value_type | numeric_value |
| --- | --- | --- | --- |
| Cn1cc(C(=O)NCc2ccc(Cl)cc2)c(=O)c2cc(CN3CCOC[C@@H]3Cc3ccccc3)sc21 [Example 1] | HCMV polymerase (Human cytomegalovirus, UniProt P08546) | pIC50 | 6.35 |
| Cn1cc(C(=O)NCc2ccc(Cl)cc2)c(=O)c2cc(CN3CCC[C@@H]3[C@@H](O)c3ccccc3)sc21 (relative stereo) [Example 2] | HCMV polymerase (Human cytomegalovirus, UniProt P08546) | pIC50 | 6.92 |
| Cn1cc(C(=O)NCc2ccc(Cl)cc2)c(=O)c2cc(CN3CCOC[C@@H]3[C@H](O)c3ccccc3)sc21 [Example 14] | HCMV polymerase (Human cytomegalovirus, UniProt P08546) | pIC50 | 5.90 |
| Cn1cc(C(=O)NCc2ccc(Cl)cc2)c(=O)c2cc(CN3CCOC[C@@H]3[C@@H](O)c3ccccc3)sc21 [Example 15] | HCMV polymerase (Human cytomegalovirus, UniProt P08546) | pIC50 | 7.62 |
